System: HCV 1b_Huh-Luc/Neo-ET cell line persistently expressing a bicistronic genotype 1b replicon in Huh 7 cells
Assay: HCV replicon assay (luciferase readout, 72 h)
Type: cell-based, HCV genotype 1b
Details: Hepatitis C virus, Huh-7, 72 h, read-out: Inhibition of HCV genotype 1b
pEC50: −log10 of the molar value.
Measurement kind: pEC50

Consider the reported pEC50 for these compounds:
>>> val("COC(=O)N[C@@H](C(=O)N1CCC[C@H]1c1ncc(-c2ccc(C#Cc3ccc(-c4cnc([C@@H]5CCCN5C(=O)[C@H](NC(=O)[C@@H]5CCCN5)c5ccccc5)[nH]4)cc3)cc2)[nH]1)c1ccccc1 [Compound 206]")
"> 9.00"
>>> val("COC(=O)N[C@H](C(=O)N1CCC[C@H]1c1ncc(-c2ccc(C#Cc3ccc(-c4cnc([C@@H]5CCCN5C(=O)[C@@H](c5ccccc5)N(C)C)[nH]4)cc3)cc2)[nH]1)C(C)C [Compound 955]")
"> 9.00"

Now consider a different compound.
Supply reported pEC50 belonging to this compound: COC(=O)N[C@@H](C(=O)N1CCC[C@H]1C(=O)Nc1ccc(C#Cc2ccc(-c3cnc([C@@H]4CCCN4C(=O)[C@H](NC(=O)OC)c4ccccc4)[nH]3)cc2)cc1)c1ccccc1 [Compound 171]
> 9.00
